Where do these numbers come from? They come from patent US6436691B1.

Assay: Conversion of Hipp-Asp by purified HCPB mutants, 30 minutes, HPLC (Example 17)
Assay type: biochemical
Conditions: enzyme 25 μg/ml; 0.5 mM substrate; 30 minutes at 37° C.
Documented Hipp-Asp (% conversion) across a set of molecules
Kindly answer with a numeric value in %, unit omitted.

Some solved cases for reference:
[[record]]
molecule = "[G251S, D253K]: HCPB mutant with G251S and D253K, (His)6-c-myc tag (protein, UniProt P15086 111-417, looked up, variant G251S D253K, (His)6-c-myc tag) Carboxypeptidase B: ATGHSYEKYNKWETIEAWTQQVATENPALISRSVIGTTFEGRAIYLLKVGKAGQNKPAIFMDCGFHAREWISPAFCQWFVREAVRTYGREIQVTELLDKLDFYVLPVLNIDGYIYTWTKSRFWRKTRSTHTGSSCIGTDPNRNFDAGWCEIGASRNPCDETYCGPAAESEKETKALADFIRNKLSSIKAYLTIHSYSQMMIYPYSYAYKLGENNAELNALAKATVKELASLHGTKYTYGPGATTIYPAAGSSKDWAYDQGIRYSFTFELRDTGRYGFLLPESQIRATCEETFLAIKYVASYVLEHLY"
measuredattribute = "Hipp-Asp (% conversion)"
recordedresult = 2.8

[[record]]
molecule = "[G251N,D253K]: HCPB mutant with G251N and D253K, (His)6-c-myc tag (protein, UniProt P15086 111-417, looked up, variant G251N D253K, (His)6-c-myc tag) Carboxypeptidase B: ATGHSYEKYNKWETIEAWTQQVATENPALISRSVIGTTFEGRAIYLLKVGKAGQNKPAIFMDCGFHAREWISPAFCQWFVREAVRTYGREIQVTELLDKLDFYVLPVLNIDGYIYTWTKSRFWRKTRSTHTGSSCIGTDPNRNFDAGWCEIGASRNPCDETYCGPAAESEKETKALADFIRNKLSSIKAYLTIHSYSQMMIYPYSYAYKLGENNAELNALAKATVKELASLHGTKYTYGPGATTIYPAAGNSKDWAYDQGIRYSFTFELRDTGRYGFLLPESQIRATCEETFLAIKYVASYVLEHLY"
measuredattribute = "Hipp-Asp (% conversion)"
recordedresult = 8.3

[[record]]
molecule = "[I201S, D253K]: HCPB mutant with I201S and D253K (protein, UniProt P15086 111-417, looked up, variant I201S D253K) Carboxypeptidase B: ATGHSYEKYNKWETIEAWTQQVATENPALISRSVIGTTFEGRAIYLLKVGKAGQNKPAIFMDCGFHAREWISPAFCQWFVREAVRTYGREIQVTELLDKLDFYVLPVLNIDGYIYTWTKSRFWRKTRSTHTGSSCIGTDPNRNFDAGWCEIGASRNPCDETYCGPAAESEKETKALADFIRNKLSSIKAYLTIHSYSQMMSYPYSYAYKLGENNAELNALAKATVKELASLHGTKYTYGPGATTIYPAAGGSKDWAYDQGIRYSFTFELRDTGRYGFLLPESQIRATCEETFLAIKYVASYVLEHLY"
measuredattribute = "Hipp-Asp (% conversion)"
recordedresult = 33.1

[[record]]
molecule = "[G251T,D253K]: HCPB mutant with G251T and D253K, (His)6-c-myc tag (protein, UniProt P15086 111-417, looked up, variant G251T D253K, (His)6-c-myc tag) Carboxypeptidase B: ATGHSYEKYNKWETIEAWTQQVATENPALISRSVIGTTFEGRAIYLLKVGKAGQNKPAIFMDCGFHAREWISPAFCQWFVREAVRTYGREIQVTELLDKLDFYVLPVLNIDGYIYTWTKSRFWRKTRSTHTGSSCIGTDPNRNFDAGWCEIGASRNPCDETYCGPAAESEKETKALADFIRNKLSSIKAYLTIHSYSQMMIYPYSYAYKLGENNAELNALAKATVKELASLHGTKYTYGPGATTIYPAAGTSKDWAYDQGIRYSFTFELRDTGRYGFLLPESQIRATCEETFLAIKYVASYVLEHLY"
measuredattribute = "Hipp-Asp (% conversion)"
recordedresult = 14


Now look at this one.
Task item: Value lookup for Hipp-Asp (% conversion); key = [G251K, D253R]: HCPB mutant with G251K and D253R (protein, UniProt P15086 111-417, looked up, variant G251K D253R) Carboxypeptidase B: ATGHSYEKYNKWETIEAWTQQVATENPALISRSVIGTTFEGRAIYLLKVGKAGQNKPAIFMDCGFHAREWISPAFCQWFVREAVRTYGREIQVTELLDKLDFYVLPVLNIDGYIYTWTKSRFWRKTRSTHTGSSCIGTDPNRNFDAGWCEIGASRNPCDETYCGPAAESEKETKALADFIRNKLSSIKAYLTIHSYSQMMIYPYSYAYKLGENNAELNALAKATVKELASLHGTKYTYGPGATTIYPAAGKSRDWAYDQGIRYSFTFELRDTGRYGFLLPESQIRATCEETFLAIKYVASYVLEHLY
Reply: 0.2
